target: MAGL (Homo sapiens)
Sequence (Q99685 whole entry, species assumed): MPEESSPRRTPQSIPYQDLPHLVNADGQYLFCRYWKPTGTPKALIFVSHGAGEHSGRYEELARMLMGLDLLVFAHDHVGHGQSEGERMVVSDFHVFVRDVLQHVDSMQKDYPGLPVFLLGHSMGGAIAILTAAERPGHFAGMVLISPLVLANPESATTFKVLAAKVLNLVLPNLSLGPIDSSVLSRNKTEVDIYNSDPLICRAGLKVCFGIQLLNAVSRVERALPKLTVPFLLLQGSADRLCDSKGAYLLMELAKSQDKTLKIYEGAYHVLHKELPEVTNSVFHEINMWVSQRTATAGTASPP
measure: IC50 (nM)

Examples with answers:
molecule: O=C1N[C@H](CCC(=O)N2CC3(CC(Oc4cncc(C(F)(F)F)n4)C3)C2)CO1
quantity_unit: nM
IC50: 17
--
molecule: O=C1N[C@H](CCC(=O)N2CC3(C2)CN(S(=O)(=O)c2ccc(OC(F)(F)F)cc2)C3)CO1
quantity_unit: nM
IC50: 2140
--
molecule: O=C1N[C@H](CCC(=O)N2CC(c3ccc(-c4ccc(F)cc4F)cc3)C2)CO1
quantity_unit: nM
IC50: 2
--
molecule: O=C1N[C@H](CCC(=O)N2CC(c3ccc(N4CC5(C4)CC(F)(F)C5)nc3)C2)CO1
quantity_unit: nM
IC50: 78
--
molecule: O=C1N[C@H](CCC(=O)N2CC3(CCN(S(=O)(=O)c4ccc(C(F)(F)F)cc4F)CC3)C2)CO1
quantity_unit: nM
IC50: 190
--
molecule: O=C1N[C@H](CCC(=O)N2CC3(CCN(Cc4ccc(C(F)(F)F)cn4)CC3)C2)CO1
quantity_unit: nM
IC50: 324

P: O=C(CCc1cnn[nH]1)N1CC(OCc2ccc(C(F)(F)F)cc2F)C1
Q: CS(=O)(=O)c1cc(Cl)ccc1-c1ccc(C2CN(C(=O)CCC3CNC(=O)N3)C2)cc1 (single isomer, unassigned) [Example 218]
Endpoint returns the identifier whose IC50 is numerically larger, either P or Q . # answer = label of selected item P
(P: 4030 nM, Q: 1210 nM)
